Tested on: HCT-15 colon
Experiment: NCI tumour cell line growth inhibition, 48 h; in the data active means GI50 below about 0.43 µM; inactive means the rest
Valid outcomes are listed here; reply with one: 1 (active), -1 (inactive)

Solved entries:
molecule=CC/C=C\C[C@H]1CC=C2C(=O)C=C[C@@H]2CC=CCCCC(=O)O[C@@H](CCCCC)CC=C2C(=O)C=C[C@@H]2CC=CCCCC(=O)O[C@@H](CCCCC)CC=C2C(=O)C=C[C@@H]2CC=CCCCC(=O)O[C@@H](CCCCC)CC=C2C(=O)C=C[C@@H]2CC=CCCCC(=O)O1 assigned_class=-1
molecule=COc1cccc2c1C(=N)c1c(O)c3c(c(O)c1C2=O)C[C@@](O)(C(C)=O)C[C@@H]3O[C@H]1C[C@H](N)[C@H](O)[C@H](C)O1 assigned_class=-1
molecule=[N-]=[N+]=NCCCn1c2c(c3ccc([N+](=O)[O-])cc3c1=O)C(=O)c1ccccc1-2 assigned_class=-1
molecule=CCN1C(=O)c2ccc3c4c(ccc(c24)C1=O)C(=O)N(CCCNCc1ccccc1OC)C3=O assigned_class=1
molecule=CCN1C(=O)/C(=C/c2c(Cl)[nH]c3cc(C)c(OC)cc23)c2ccccc21 assigned_class=-1

# lookup: test call for Cc1cc(Cl)ccc1OCC(=O)Nc1nc2c(Cl)cccc2s1 -1

What classification did Cc1ccc(C2=C(c3ccc(C)cc3)C3(c4ccc(C)cc4)C4C(=O)OC(=O)C4C2(c2ccc(C)cc2)S3=O)cc1 (configuration not stated) end up with in this test? -1
